# PROCEDURE_TEXT: Plasma pharmacokinetics of ALM201 in Phase I patients (validated LC-MS/MS, Phoenix WinNonlin)
# CONDITION_SET: human, plasma, sc, 20 mg, Tmax, median, 20 mg SC, day 18 cycle 1, n = 1; plasma LC-MS/MS
No end group written: not given here.
ENDPOINT: Tmax (h)

- ORDERED_RESIDUES: "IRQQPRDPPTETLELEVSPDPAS [ALM201]"
  MEASURED: 1.02

###

# PROCEDURE_TEXT: Plasma pharmacokinetics of ALM201 in Phase I patients (validated LC-MS/MS, Phoenix WinNonlin)
# CONDITION_SET: human, plasma, sc, 10 mg, Cmax, Gmean (CV), 10 mg SC, day 18 cycle 2, n = 1; plasma LC-MS/MS
No end group written: not given here.
ENDPOINT: Cmax

- ORDERED_RESIDUES: "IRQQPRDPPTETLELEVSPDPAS [ALM201]"
  MEASURED: "288 ng/mL"

###

# PROCEDURE_TEXT: Plasma pharmacokinetics of ALM201 in Phase I patients (validated LC-MS/MS, Phoenix WinNonlin)
# CONDITION_SET: human, plasma, sc, 40 mg, AUC0-t, Gmean (CV), 40 mg SC, day 18 cycle 1, n = 1; plasma LC-MS/MS
No end group written: not given here.
ENDPOINT: AUC(0-t)

- ORDERED_RESIDUES: "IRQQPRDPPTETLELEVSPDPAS [ALM201]"
  MEASURED: "1840 ng·h/mL"

###

# PROCEDURE_TEXT: Plasma pharmacokinetics of ALM201 in Phase I patients (validated LC-MS/MS, Phoenix WinNonlin)
# CONDITION_SET: human, plasma, sc, 200 mg, Plasma concentration, geometric mean (CV%), 200 mg SC, day 1 cycle 1, 0.25 h after dosing, n = 4; LC-MS/MS
No end group written: not given here.
ENDPOINT: level at 0.25 h

- ORDERED_RESIDUES: "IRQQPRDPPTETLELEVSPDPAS [ALM201]"
  MEASURED: "479 ng/mL"

###

# PROCEDURE_TEXT: Plasma pharmacokinetics of ALM201 in Phase I patients (validated LC-MS/MS, Phoenix WinNonlin)
# CONDITION_SET: human, plasma, sc, 20 mg, Plasma concentration, geometric mean (CV%), 20 mg SC, day 1 cycle 1, 0.25 h after dosing, n = 1; LC-MS/MS
No end group written: not given here.

- ORDERED_RESIDUES: "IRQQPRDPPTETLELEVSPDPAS [ALM201]"
  level at 0.25 h [ng/mL]: 136

###

# PROCEDURE_TEXT: Plasma pharmacokinetics of ALM201 in Phase I patients (validated LC-MS/MS, Phoenix WinNonlin)
# CONDITION_SET: human, plasma, sc, 40 mg, Plasma concentration, geometric mean (CV%), 40 mg SC, day 18 cycle 2, 0.5 h after dosing, n = 1; LC-MS/MS
No end group written: not given here.

- ORDERED_RESIDUES: "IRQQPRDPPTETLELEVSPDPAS [ALM201]"
  level at 0.5 h (ng/mL): 384

###

# PROCEDURE_TEXT: Plasma pharmacokinetics of ALM201 in Phase I patients (validated LC-MS/MS, Phoenix WinNonlin)
# CONDITION_SET: human, plasma, sc, 300 mg, Plasma concentration, geometric mean (CV%), 300 mg SC, day 1 cycle 1, 3 h after dosing, n = 3; LC-MS/MS
No end group written: not given here.

- ORDERED_RESIDUES: "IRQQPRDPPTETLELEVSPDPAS [ALM201]"
  level at 3 h, ng/mL: 2120

###

# PROCEDURE_TEXT: Plasma pharmacokinetics of ALM201 in Phase I patients (validated LC-MS/MS, Phoenix WinNonlin)
# CONDITION_SET: human, plasma, sc, 10 mg, Plasma concentration, geometric mean (CV%), 10 mg SC, day 18 cycle 2, 2 h after dosing, n = 1; LC-MS/MS
No end group written: not given here.
ENDPOINT: level at 2 h

- ORDERED_RESIDUES: "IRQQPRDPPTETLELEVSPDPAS [ALM201]"
  MEASURED: "288 ng/mL"
